Listing of recorded activation by entry.
- PROTOCOL_TEXT: agonists of NOTCH signaling (AID 434982)
- EXPERIMENTAL_SETUP: NOTCH signaling luciferase reporter cells, luminescence; at 2.5 µM; stronger effect = higher value
In all, about 15,000 compounds went through this assay and about 60 (0.4%) were called active. The list comes from a sample in which actives are over-represented; it also holds close analogues and randomly drawn compounds.
REPORTED_PROPERTY: activation (%)

| STRUCTURE_SMILES_STRING | RECORDED_VALUE |
| --- | --- |
| N#Cc1ccc(-c2csc(COc3ccccc3Cl)n2)cc1 | 0.49 |
| CCOC(=O)/C=C(/Nc1ccccc1SC)c1ccccc1 | -0.36 |
| O=C(Nc1cccnc1Oc1ncnc2cc(Cl)ccc12)c1ccc(F)cc1 | -5.46 |

====

// values below are reported activation
- PROTOCOL_TEXT: agonists of NOTCH signaling (AID 434982)
- EXPERIMENTAL_SETUP: NOTCH signaling luciferase reporter cells, luminescence; at 2.5 µM; stronger effect = higher value
In all, about 15,000 compounds went through this assay and about 60 (0.4%) were called active. What follows is part of a selection rich in actives, with near analogues and random picks from the rest.

| COMPOUND | activation |
| --- | --- |
| CSc1nnc(-c2ccc(C(F)(F)F)cn2)o1 | 0.03% (inactive) |
| FC(F)(F)c1cc(-c2ccc(Br)cc2)n[nH]1 | 0.22% (inactive) |
| N#C/C=C/c1ccc(C(F)(F)F)cc1[N+](=O)[O-] | -0.41% (inactive) |
| c1ccc(C2=NCCN=C2c2ccccc2)cc1 | 0.16% (inactive) |
| CN(NS(=O)(=O)c1ccc(C(F)(F)F)cc1)c1cnn(C)c(=O)c1Cl | -0.2% (inactive) |
| COc1cccc(/C=N/NC(=S)Nc2cc(C(F)(F)F)cc(C(F)(F)F)c2)c1O | -0.66% (inactive) |
| O=C1c2cc(S(=O)(=O)Oc3ccccc3)ccc2-c2ccc(S(=O)(=O)Oc3ccccc3)cc21 | -1.18% (inactive) |
| COC(=O)C1=C(NNc2ncc(Cl)cc2C(F)(F)F)CSC1 | -0.05% (inactive) |
| O/N=C/c1ccc(F)c(Cl)c1 | 0.44% (inactive) |
| O=S(=O)(CCSc1ccccc1NS(=O)(=O)c1cccs1)c1ccc(Cl)cc1 | -0.38% (inactive) |
| O=C(/C(=N\N=C\c1ccc2c(c1)OCO2)c1ccccc1)c1ccccc1 | -0.24% (inactive) |
| Cn1nccc1NC(=O)CC(CC(=O)O)c1ccccc1 (centres undefined) | 0.57% (inactive) |
| COC(OC)c1ccc(C#N)c(SCC(=O)Nc2ccc(C(F)(F)F)cc2)n1 | -0.25% (inactive) |
| COc1ccc(CCN=C(C)c2cc(Cl)cc(Cl)c2O)cc1OC | -0.13% (inactive) |
